Ref: patent US20210163545A1

Entries and their SBC without alkali treatment (mg/mL-particles)
# SYSTEM UNDER TEST: Fab
# RUN DESCRIPTION: static binding capacity: Fab incubated with ligand-immobilized porous particles, eluted at pH 2.5, absorbance
Number only, no unit.

// worked examples, SBC without alkali treatment (mg/mL-particles) included
BINDER	MEASURED VALUE
Recombinant immunoglobulin κ chain binding protein KBP5 (protein) KETPETPEEPKEEVTIKVNLIFADGKTQTATFKGTFEEATAEAYRYADLLAKVQGEYTADLEDGGYTINIKFAGKKETPETPEEPKEEVTIKVNLIFADGKTQTATFKGTFEEATAEAYRYADLLAKVQGEYTADLEDGGYTINIKFAGKKETPETPEEPKEEVTIKVNLIFADGKTQTATFKGTFEEATAEAYRYADLLAKVQGEYTADLEDGGYTINIKFAGKKETPETPEEPKEEVTIKVNLIFADGKTQTATFKGTFEEATAEAYRYADLLAKVQGEYTADLEDGGYTINIKFAGK	63
Recombinant immunoglobulin κ chain binding protein KBP2 (protein) KETPETPEEPKEEVTIKVNLIFADGRTQTATFKGTFEEATAEAYRYADLLAKVNGEYTADLEDGGYTINIKFAGKKETPETPEEPKEEVTIKVNLIFADGRTQTATFKGTFEEATAEAYRYADLLAKVNGEYTADLEDGGYTINIKFAGKKETPETPEEPKEEVTIKVNLIFADGRTQTATFKGTFEEATAEAYRYADLLAKVNGEYTADLEDGGYTINIKFAGKKETPETPEEPKEEVTIKVNLIFADGRTQTATFKGTFEEATAEAYRYADLLAKVNGEYTADLEDGGYTINIKFAGK	59
Recombinant type immunoglobulin κ chain binding protein KBP0 (protein) KETPETPEEPKEEVTIKVNLIFADGKTQTATFKGTFEEATAEAYRYADLLAKVNGEYTADLEDGGYTINIKFAGKKETPETPEEPKEEVTIKVNLIFADGKTQTATFKGTFEEATAEAYRYADLLAKVNGEYTADLEDGGYTINIKFAGKKETPETPEEPKEEVTIKVNLIFADGKTQTATFKGTFEEATAEAYRYADLLAKVNGEYTADLEDGGYTINIKFAGKKETPETPEEPKEEVTIKVNLIFADGKTQTATFKGTFEEATAEAYRYADLLAKVNGEYTADLEDGGYTINIKFAGK	60

// fetch SBC without alkali treatment (mg/mL-particles) given entry Recombinant immunoglobulin κ chain binding protein KBP7 (protein, part only; not given: further domain copies and linkers, part only) chain, part: KETPETPEEPKEEVTIKVNLIFADGKTQTATFKGTFEEATAEAYRYADLLAKVNYGEYTADLEDGGYTINIKFAGK
64

Indicate the recorded SBC without alkali treatment (mg/mL-particles) value for this binder: Recombinant immunoglobulin κ chain binding protein KBP1 (protein) KETPETPEEPKEEVTIRVNLIFADGKTQTATFKGTFEEATAEAYRYADLLAKVNGEYTADLEDGGYTINIKFAGKKETPETPEEPKEEVTIRVNLIFADGKTQTATFKGTFEEATAEAYRYADLLAKVNGEYTADLEDGGYTINIKFAGKKETPETPEEPKEEVTIRVNLIFADGKTQTATFKGTFEEATAEAYRYADLLAKVNGEYTADLEDGGYTINIKFAGKKETPETPEEPKEEVTIRVNLIFADGKTQTATFKGTFEEATAEAYRYADLLAKVNGEYTADLEDGGYTINIKFAGK
56

Give recorded SBC without alkali treatment (mg/mL-particles). Recombinant immunoglobulin κ chain binding protein KBP3 (protein) KETPETPEEPKEEVTIKVNLIFADGKTQTATFKGRFEEATAEAYRYADLLAKVNGEYTADLEDGGYTINIKFAGKKETPETPEEPKEEVTIKVNLIFADGKTQTATFKGRFEEATAEAYRYADLLAKVNGEYTADLEDGGYTINIKFAGKKETPETPEEPKEEVTIKVNLIFADGKTQTATFKGRFEEATAEAYRYADLLAKVNGEYTADLEDGGYTINIKFAGKKETPETPEEPKEEVTIKVNLIFADGKTQTATFKGRFEEATAEAYRYADLLAKVNGEYTADLEDGGYTINIKFAGK
58
